# measured_on: DBH (Bos taurus, UniProt P15101)
# Sequence (P15101 whole entry): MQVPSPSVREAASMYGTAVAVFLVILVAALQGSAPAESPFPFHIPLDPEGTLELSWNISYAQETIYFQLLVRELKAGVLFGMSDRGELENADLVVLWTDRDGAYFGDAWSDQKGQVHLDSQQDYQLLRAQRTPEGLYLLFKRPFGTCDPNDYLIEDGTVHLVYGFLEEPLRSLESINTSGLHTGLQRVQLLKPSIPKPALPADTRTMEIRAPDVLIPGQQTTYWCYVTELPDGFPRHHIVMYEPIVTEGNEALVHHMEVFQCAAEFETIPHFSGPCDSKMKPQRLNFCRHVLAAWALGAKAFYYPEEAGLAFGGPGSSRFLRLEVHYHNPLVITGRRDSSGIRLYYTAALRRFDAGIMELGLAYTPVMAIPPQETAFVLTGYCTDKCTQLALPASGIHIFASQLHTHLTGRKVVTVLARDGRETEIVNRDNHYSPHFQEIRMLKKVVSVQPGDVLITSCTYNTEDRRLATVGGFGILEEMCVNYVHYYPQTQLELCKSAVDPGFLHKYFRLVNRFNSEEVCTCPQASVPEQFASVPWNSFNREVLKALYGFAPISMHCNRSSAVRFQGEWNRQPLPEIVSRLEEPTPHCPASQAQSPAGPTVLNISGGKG
# assay_summary: in vitro DBH inhibition, conversion of tyramine to octopamine in the presence of DBH (spectrophotometric at 330 nm)
# conditions_used: molar concentration of compound at which DBH activity was halved
Below, each of the molecules is paired with its reported log10 IC50 value.
measure_name: log10 IC50 (log10 of the value in µM)

> print(dat)
                                   molecule                       measured.on  obs.value
1  Sc1ncc(-c2ccc(Cl)cc2)[nH]1 [5-(4-Chlorophenyl)-2-mercaptoimidazole]  DBH (Bos taurus, UniProt P15101)       2.00
2                Oc1ccc(CCc2cnc(S)[nH]2)cc1  DBH (Bos taurus, UniProt P15101)       2.60
3  Sc1ncc(CCCc2ccccc2)[nH]1 [5-(3-Phenylpropyl)-2-mercaptoimidazole]  DBH (Bos taurus, UniProt P15101)       1.00
4             COc1ccc(CCCCc2cnc(S)[nH]2)cc1  DBH (Bos taurus, UniProt P15101)       2.00
5  Sc1ncc(CCCCc2ccccc2)[nH]1 [5-(4-Phenylbutyl)-2-mercaptoimidazole]  DBH (Bos taurus, UniProt P15101)       2.00
6  Sc1nc(-c2ccccc2)c[nH]1 [5-Phenyl-2-mercaptoimidazole]  DBH (Bos taurus, UniProt P15101)       3.74
7  Sc1ncc(CCc2ccccc2)[nH]1 [5-(2-Phenylethyl)-2-mercaptoimidazole]  DBH (Bos taurus, UniProt P15101)       1.23

Data credit: patent US4798843A
